- protocol: β-cyclodextrin dissolution rate in deionized water by refractive index
- Type: physicochemical
- measurement parameters: time 1 min; 350 mg in 50 mL deionized water
The molecules listed here are annotated with their β-Cyclodextrin Dissolved (%).
Field format: number, assumed %, no unit text.

Worked examples, 3 molecules total:
molecule: OC[C@H]1O[C@@H]2O[C@H]3[C@H](O)[C@@H](O)[C@@H](O[C@H]4[C@H](O)[C@@H](O)[C@@H](O[C@H]5[C@H](O)[C@@H](O)[C@@H](O[C@H]6[C@H](O)[C@@H](O)[C@@H](O[C@H]7[C@H](O)[C@@H](O)[C@@H](O[C@H]8[C@H](O)[C@@H](O)[C@@H](O[C@H]1[C@H](O)[C@H]2O)O[C@@H]8CO)O[C@@H]7CO)O[C@@H]6CO)O[C@@H]5CO)O[C@@H]4CO)O[C@@H]3CO [57 μm, β-cyclodextrin]
β-Cyclodextrin Dissolved (%): 102

molecule: OC[C@H]1O[C@@H]2O[C@H]3[C@H](O)[C@@H](O)[C@@H](O[C@H]4[C@H](O)[C@@H](O)[C@@H](O[C@H]5[C@H](O)[C@@H](O)[C@@H](O[C@H]6[C@H](O)[C@@H](O)[C@@H](O[C@H]7[C@H](O)[C@@H](O)[C@@H](O[C@H]8[C@H](O)[C@@H](O)[C@@H](O[C@H]1[C@H](O)[C@H]2O)O[C@@H]8CO)O[C@@H]7CO)O[C@@H]6CO)O[C@@H]5CO)O[C@@H]4CO)O[C@@H]3CO [116 μm, β-cyclodextrin]
β-Cyclodextrin Dissolved (%): 58

molecule: OC[C@H]1O[C@@H]2O[C@H]3[C@H](O)[C@@H](O)[C@@H](O[C@H]4[C@H](O)[C@@H](O)[C@@H](O[C@H]5[C@H](O)[C@@H](O)[C@@H](O[C@H]6[C@H](O)[C@@H](O)[C@@H](O[C@H]7[C@H](O)[C@@H](O)[C@@H](O[C@H]8[C@H](O)[C@@H](O)[C@@H](O[C@H]1[C@H](O)[C@H]2O)O[C@@H]8CO)O[C@@H]7CO)O[C@@H]6CO)O[C@@H]5CO)O[C@@H]4CO)O[C@@H]3CO [249 μm, β-cyclodextrin]
β-Cyclodextrin Dissolved (%): 20

Continue with the next molecule.
Inquiry: What value of β-Cyclodextrin Dissolved (%) has been reported for the following molecule? OC[C@H]1O[C@@H]2O[C@H]3[C@H](O)[C@@H](O)[C@@H](O[C@H]4[C@H](O)[C@@H](O)[C@@H](O[C@H]5[C@H](O)[C@@H](O)[C@@H](O[C@H]6[C@H](O)[C@@H](O)[C@@H](O[C@H]7[C@H](O)[C@@H](O)[C@@H](O[C@H]8[C@H](O)[C@@H](O)[C@@H](O[C@H]1[C@H](O)[C@H]2O)O[C@@H]8CO)O[C@@H]7CO)O[C@@H]6CO)O[C@@H]5CO)O[C@@H]4CO)O[C@@H]3CO [156 μm, β-cyclodextrin]
Reply text: 41
